The origin of these recorded values is paper PMC9482650.

For each entry below, report its pKd value.
Target: MAGI3_2, Q5TCQ9
Sequence (Q5TCQ9 398-503): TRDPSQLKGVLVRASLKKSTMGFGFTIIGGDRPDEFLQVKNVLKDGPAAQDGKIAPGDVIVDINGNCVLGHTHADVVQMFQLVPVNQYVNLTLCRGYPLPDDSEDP
Assay: holdup assay
Set-up: key: below the threshold = too weak to quantify, mostly under pKd 3.1 to 4
Settings: plain residues with an end cap or a label only (N-terminal biotin on a linker: ttds)
Give the figure by itself; no unit, no explanation.

Task item: Find the recorded pKd belonging to FVETQHQTQV [FAT3, Q8TDW7] and report it.
Reply: 4.57

Task item: Find the recorded pKd belonging to SSIDLWETAL [SLC15A5, A6NIM6] and report it.
Reply: 3.81

Task item: Find the recorded pKd belonging to PFRSRSPSEV [GPR6, P46095] and report it.
Reply: 4.16

Task item: Find the recorded pKd belonging to KQVVPFSSSV [GDA, Q9Y2T3] and report it.
Reply: 3.81

Task item: Find the recorded pKd belonging to GARVSKETPL [MAPK12, P53778] and report it.
Reply: 4.17

Task item: Find the recorded pKd belonging to SRSRRRETAL [HPV33-E6, P06427] and report it.
Reply: 5.39

Task item: Find the recorded pKd belonging to GRLLGLETNV [ARHGEF26, Q96DR7] and report it.
Reply: 4.68

Task item: Find the recorded pKd belonging to SGGKRKETLV [NET1, Q7Z628] and report it.
Reply: 5.92

Task item: Find the recorded pKd belonging to QRPYRRESEI [KCNJ12, Q14500] and report it.
Reply: 4.75

Task item: Find the recorded pKd belonging to NPDALPETLV [ARHGAP6, O43182] and report it.
Reply: 4.6

Task item: Find the recorded pKd belonging to PSRDRKETSI [RALBP1, Q15311] and report it.
Reply: 4.76

Task item: Find the recorded pKd belonging to KLVIKTETTV [RASSF6, Q6ZTQ3] and report it.
Reply: 5.22

Task item: Find the recorded pKd belonging to PPRQRSETQV [HPV82-E6, Q9IR59] and report it.
Reply: 5.68

Task item: Find the recorded pKd belonging to SHSSKGETAV [FZD7, O75084] and report it.
Reply: 4.93
